reported-metric: logP
Response field accepts a number only; no unit should be typed.

INSERT INTO measurements (molecule, recorded_value) VALUES
  ('O=C1CC(Oc2ccccc2C(=O)c2ccccc2)N1 (stereo not given)', 1.83),
  ('CC(C)(C)OC(=O)CN1C(=O)CC1Oc1ccc2ccccc2c1 (stereo not given)', 3.6),
  ('O=C1CC(Oc2ccc(C(=O)c3ccccc3)cc2)N1 (stereo not given)', 2.14),
  ('O=C1CC(Sc2ccc3ccccc3c2)N1 (stereo not given)', 2.64),
  ('CCOC(=O)CN1C(=O)CC1Oc1ccc(C(=O)C=Cc2ccccc2)cc1 (stereo not given)', 3.3);

Lab note: measured logP of O=C1CC(Oc2cccc(C(=O)OCc3ccccc3)c2)N1 (stereo not given) was 2.83

logP for CCOC(=O)CN1C(=O)CC1Oc1ccc(C(=O)c2ccccc2)cc1 (stereo not given) is 3

Entry under test: O=C1CC(Oc2ccc3ccccc3c2)N1 (stereo not given) . Its logP was 2.29

Lab book: logP of CCOC(=O)CN1C(=O)CC1Oc1ccc2ccccc2c1 (stereo not given) noted as 2.8

logP reported for this molecule O=C1CC(Oc2ccc(C(=O)C=Cc3ccccc3)cc2)N1 (stereo not given) : 2.56

The molecule O=C1CC(Oc2cccc3ccccc23)N1 (stereo not given) showed logP equal to 2.66

The recorded logP for O=C1CC(Sc2ccccc2C(=O)OCc2ccccc2)N1 (stereo not given) is 2.62

Per the record, O=C1CC(Oc2ccc(-c3ccccc3)cc2)N1 (stereo not given) has logP of 2.61

Documented logP of CCOC(=O)CN1C(=O)CC1Sc1ccc2ccccc2c1 (stereo not given) : 3.4

Per the records, this molecule ( O=C1CC(Sc2ccc(Cl)cc2)N1 (stereo not given) ) has logP equal to 2.31
